As shown below, each of these compounds has a reported inhibition value.
targetOrSystem: NAD-dependent histone deacetylase SIR2 (Saccharomyces cerevisiae S288c) (UniProt P06700)
Sequence (P06700 whole entry): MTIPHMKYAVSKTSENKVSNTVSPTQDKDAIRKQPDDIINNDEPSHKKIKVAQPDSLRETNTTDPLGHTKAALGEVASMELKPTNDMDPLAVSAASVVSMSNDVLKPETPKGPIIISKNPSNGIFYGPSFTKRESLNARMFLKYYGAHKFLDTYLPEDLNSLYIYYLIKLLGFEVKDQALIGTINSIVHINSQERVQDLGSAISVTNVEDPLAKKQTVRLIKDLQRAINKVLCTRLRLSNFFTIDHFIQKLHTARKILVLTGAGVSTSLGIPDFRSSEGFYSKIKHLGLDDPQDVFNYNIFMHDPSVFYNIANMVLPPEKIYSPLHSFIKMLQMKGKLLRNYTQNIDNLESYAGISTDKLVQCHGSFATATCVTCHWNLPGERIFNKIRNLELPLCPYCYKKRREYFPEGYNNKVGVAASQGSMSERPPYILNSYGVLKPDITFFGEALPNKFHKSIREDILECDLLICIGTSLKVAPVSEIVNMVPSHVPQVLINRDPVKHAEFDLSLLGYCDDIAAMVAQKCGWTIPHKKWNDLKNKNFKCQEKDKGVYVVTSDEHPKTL
protocolDescription: Inhibition of Sir 2 protein mediated transcriptional silencing at the telomeric locus in yeast at 50 uM after 24 to 48 hrs by URA3 reporter gene assay
valueType: inhibition (%)

[[record]]
compound = "Cc1ccc(S(=O)(=O)n2c(CN3C(=O)C4(NC(=O)c5ccccc5N4)c4ccccc43)cc3cc(Br)ccc32)cc1 (centres undefined)"
recordedvalue = 16.4

[[record]]
compound = "Cc1ccc(S(=O)(=O)n2c(CN3C(=O)C4(NC(=O)c5ccccc5N4)c4ccccc43)cc3cc(C(F)(F)F)ccc32)cc1 (centres undefined)"
recordedvalue = 38.4

[[record]]
compound = "COc1ccc2c(c1)cc(CN1C(=O)C3(NC(=O)c4ccccc4N3)c3ccccc31)n2S(C)(=O)=O (centres undefined)"
recordedvalue = 39

[[record]]
compound = "CS(=O)(=O)n1c(CN2C(=O)C3(NC(=O)c4ccccc4N3)c3ccccc32)cc2cc(Cl)ccc21 (centres undefined)"
recordedvalue = 30.9

[[record]]
compound = "CS(=O)(=O)n1c(CN2C(=O)C3(NC(=O)c4ccccc4N3)c3ccccc32)cc2cc(C(F)(F)F)ccc21 (centres undefined)"
recordedvalue = 39.6

[[record]]
compound = "CS(=O)(=O)n1c(CN2C(=O)C3(NC(=O)c4ccccc4N3)c3ccccc32)cc2ccccc21 (centres undefined)"
recordedvalue = 13.9

[[record]]
compound = "COc1ccc2c(c1)cc(CN1C(=O)C3(NC(=O)c4ccccc4N3)c3ccccc31)n2S(=O)(=O)c1ccc(C)cc1 (centres undefined)"
recordedvalue = 41

[[record]]
compound = "Cc1ccc(S(=O)(=O)n2c(CN3C(=O)C4(NC(=O)c5ccccc5N4)c4ccccc43)cc3cc(Cl)ccc32)cc1 (centres undefined)"
recordedvalue = 40.9

[[record]]
compound = "CS(=O)(=O)n1c(CN2C(=O)C3(NC(=O)c4ccccc4N3)c3ccccc32)cc2cc(F)ccc21 (centres undefined)"
recordedvalue = 30.3

[[record]]
compound = "Cc1ccc(S(=O)(=O)n2c(CN3C(=O)C4(NC(=O)c5ccccc5N4)c4ccccc43)cc3cc(F)ccc32)cc1 (centres undefined)"
recordedvalue = 15.2

[[record]]
compound = "Cc1ccc(S(=O)(=O)n2c(CN3C(=O)C4(NC(=O)c5ccccc5N4)c4ccccc43)cc3ccccc32)cc1 (centres undefined)"
recordedvalue = 36.5

[[record]]
compound = "Cc1ccc(S(=O)(=O)n2c(CN3C(=O)C4(NC(=O)c5ccccc5N4)c4ccccc43)cc3cc(C)ccc32)cc1 (centres undefined)"
recordedvalue = 1.2

[[record]]
compound = "CS(=O)(=O)n1c(CN2C(=O)C3(NC(=O)c4ccccc4N3)c3ccccc32)cc2cc(Br)ccc21 (centres undefined)"
recordedvalue = 38.5

[[record]]
compound = "Cc1ccc2c(c1)cc(CN1C(=O)C3(NC(=O)c4ccccc4N3)c3ccccc31)n2S(C)(=O)=O (centres undefined)"
recordedvalue = 40.9

